# Test system: SF-539 CNS
# measurementDescription: NCI tumour cell line growth inhibition, 48 h
Where a SMILES comes first, the peptide text is derived from it. [ ]: non-standard residue; d: D form.
experimentalEndpoint: TGI

INSERT INTO results (compound, systemundertest, result) VALUES
  ('CC(C)C[C@H](NC(=O)[C@H](CC(C)C)NC(=O)[C@@H](Cc1c[nH]c2ccccc12)NC(=O)[C@H](Cc1ccccc1)NC(=O)[C@@H](Cc1c[nH]c2ccccc12)NC(=O)[C@H](CCC(N)=O)NC(=O)[C@H](CCC(N)=O)NC(=O)[C@H]1CCCN1C(=O)[C@@H](N)CCCCN)C(N)=O (H-K[dP]QQ[dW]F[dW]LL-NH2)', 'SF-539 CNS', '> 100 µM'),
  ('COc1ccc(N(/C=C/C(=O)C(F)(F)F)CC(=O)c2ccc(F)cc2)cc1', 'SF-539 CNS', '52 µM'),
  ('COc1ccc2nc3cc(Cl)ccc3c(SCC(=O)Nc3ccccc3-c3ccccc3NC(=O)CSc3c4ccc(Cl)cc4nc4ccc(OC)cc34)c2c1', 'SF-539 CNS', '> 100 µM'),
  ('CCOP(=O)(OCC)OC1c2[nH]cc(C(=O)OCc3ccccc3)c2-c2cc(C(=O)OC)[nH]c2C1OC (configuration not stated)', 'SF-539 CNS', '> 43.7 µM'),
  ('Cn1cccc1-c1cc(-c2ccc(Br)cc2)[nH]c(=O)c1C#N', 'SF-539 CNS', '> 100 µM');

-- ask Notebook entry, SF-539 CNS assay: TGI of CCOC(=O)C(Cl)(NC(=O)OCc1ccccc1)C(F)(F)F (configuration not stated) = ?
-- reply > 100 µM

-- ask What do you have for Cc1nn(-c2ccc([N+](=O)[O-])cc2)c2ncnc(N/N=C/c3ccccc3O)c12 ?
-- reply 1.77 µM

-- ask What do you have for CCC[CH2][Sn]1([CH2]CCC)[O]C2C(CO)OC(n3ccc(N)nc3=O)C2[O]1 (configuration not stated) ?
-- reply 2.72 µM

-- ask What do you have for COC1=C(C)C(=O)c2c(cc3c(c2O)C(C)(CCC=C(C)C)C(C)O3)C1=O (configuration not stated) ?
-- reply > 100 µM

-- ask What do you have for O=c1cc(-c2ccccc2)[nH]c2nccn12 ?
-- reply > 10 µM

-- ask What do you have for N#Cc1c(-c2ccccc2)c(CN2CCCCC2)c(=O)n2c1[nH]c1ccccc12 ?
-- reply > 100 µM

====

# Test system: TK-10 renal
# measurementDescription: NCI tumour cell line growth inhibition, 48 h
experimentalEndpoint: TGI

INSERT INTO assay_data (compound, result) VALUES
  ('COc1cccc(NC(=O)CC(=O)N2N=C(n3ccc4ccccc43)CC2c2ccccc2)c1 (stereo not given)', '> 100 µM');

Proceed to the following item.
-- ask Quick one: TGI of CCOC(=O)c1cccc(NC(=O)CI)c1 ?
-- reply 2.19 µM

====

Each record here notes measured TGI.
# Test system: HT29 colon
# measurementDescription: NCI tumour cell line growth inhibition, 48 h
Where a SMILES comes first, the peptide text is derived from it. [ ]: non-standard residue; d: D form.

INSERT INTO results (compound, result) VALUES
  ('CC(C)N(C(C)C)S(=O)(=O)C[C@]12CC[C@H](CC13OCC(CS(=O)(=O)c1ccccc1)O3)C2(C)C (some centres not stated)', '> 100 µM'),
  ('O=[N+]([O-])c1ccc(NNN=Nc2ccc(-c3nc4ccccc4s3)cc2)c([N+](=O)[O-])c1', '41.3 µM'),
  ('COc1ccc(C(=O)/C=C/c2cccc(Nc3ccnc4cc(Cl)ccc34)c2)cc1', '> 100 µM'),
  ('CNC1(C(=O)O)CC1', '> 100 µM'),
  ('COC(=O)/C=C1/OC(c2ccc(OC)cc2)=C(Cl)C1=O', '36.5 µM'),
  ('CC1=CC2c3cccc4[nH]cc(c34)CC2N(C)C1 (configuration not stated)', '> 100 µM');

-- ask Notebook entry, HT29 colon assay: TGI of C[CH2][Sn]([CH2]C)([O]C(=O)c1ccccc1F)[O][Sn]([CH2]C)([CH2]C)[O]C(=O)c1ccccc1F = ?
-- reply > 72.7 µM

-- ask What do you have for CC(C)C[C@H](NC(=O)[C@H](CC(C)C)NC(=O)[C@@H](Cc1c[nH]c2ccccc12)NC(=O)[C@H](Cc1ccccc1)NC(=O)[C@@H](Cc1c[nH]c2ccccc12)NC(=O)[C@H](CCC(N)=O)NC(=O)[C@H](CCC(N)=O)NC(=O)[C@H]1CCCN1C(=O)[C@@H](N)CCCCN)C(N)=O (H-K[dP]QQ[dW]F[dW]LL-NH2) ?
-- reply > 100 µM

-- ask What do you have for C#CCNCCN1C(=O)c2ccc3c4c(ccc(c24)C1=O)C(=O)N(CCNCC#C)C3=O ?
-- reply 6.2 µM

-- ask What do you have for c1ccc2c(c1)OC(N1CCCC1)c1cnc(N3CCOCC3)nc1-2 (configuration not stated) ?
-- reply > 100 µM

====

# Test system: RXF 393 renal
# measurementDescription: NCI tumour cell line growth inhibition, 48 h
experimentalEndpoint: TGI

INSERT INTO assay_data (compound, result) VALUES
  ('COc1cc(/C=C/C(=O)c2ccc(F)cc2)ccc1OCCCN1CCN(CC(=O)Nc2ccc(Cl)cc2C(=O)c2ccccc2Cl)CC1', '15.8 µM');

-- ask Quick one: TGI of O=C(CC(Cl)=C(Cl)Cl)c1ccccc1 ?
-- reply 63.8 µM

-- ask What do you have for CC1(C)N=C(C2CCCN2C(=O)OCc2ccccc2)OC1=O (stereo not given) ?
-- reply 85.1 µM

-- ask What do you have for COc1ccc(COC2CC(OC)OC(C)C2OC(=O)c2ccccc2)cc1 (stereo not given) ?
-- reply > 96.6 µM

-- ask What do you have for CCO/C=N/C1=C(C#N)SC2=N/C(=C\c3ccccc3)C(=O)N21 ?
-- reply > 100 µM

-- ask What do you have for COc1ccc2nc3cc(Cl)ccc3c(SCC(=O)Nc3ccccc3-c3ccccc3NC(=O)CSc3c4ccc(Cl)cc4nc4ccc(OC)cc34)c2c1 ?
-- reply > 100 µM

-- ask What do you have for CNc1nc(C(N)=O)c(N)s1 ?
-- reply > 100 µM

-- ask What do you have for O1[As]2O[As]3O[As]1O[As](O2)O3 ?
-- reply 1.85 µM

-- ask What do you have for CC(Cl)CC(=O)OCC1CCCN2CCCCC12 (stereo not given) ?
-- reply > 100 µM

-- ask What do you have for CCOC(=O)C(Cl)(NC(=O)OCc1ccccc1)C(F)(F)F (stereo not given) ?
-- reply > 100 µM

-- ask What do you have for COC(=O)CCC(NC(=O)OC(C)(C)C)C(=O)NC(Cc1ccc(NC(=O)CCCC(C)=O)cc1)C(=O)NC(CCC(=O)OC)C(=O)OC (stereo not given) ?
-- reply > 100 µM

====

# Tested on: MDA-MB-435
# measurementDescription: NCI tumour cell line growth inhibition, 48 h
Mark satisfied for reported TGI of 10 µM or greater; mark not satisfied for anything smaller.

// below: answered compounds
INSERT INTO assay_data (compound, classlabel) VALUES
  ('Cc1n(Cc2ccccc2)nc2sc(N)n[n+]12', 'satisfied'),
  ('CC(=O)[O][Sn]([CH2]c1ccccc1)([CH2]c1ccccc1)[CH2]c1ccccc1', 'satisfied'),
  ('COc1cc(OC)c(C(=O)/C=C/c2cccc(C#N)c2)c(OC)c1', 'not satisfied'),
  ('CN(Cc1cnc2c(N)nc(N)nc2n1)c1ccc(Cl)cc1', 'satisfied');

-- ask Could you please find out whether CC(C)Oc1c(-c2ccc(F)cc2)c(O)c2c3c1oc(=O)n3C=CC2C (configuration not stated) has TGI that meets 10 µM or exceeds it?
-- reply satisfied

-- ask What do you have for CN(C)Cc1cc(N=Nc2ccc(Cl)cc2)cc(CN(C)C)c1O ?
-- reply satisfied

-- ask What do you have for Cc1ccc(Nc2nc3c(=O)n(C)c(=O)n(C)c3nc2Nc2ccc(C)cc2)cc1 ?
-- reply satisfied

-- ask What do you have for OC1CSc2nc3ccccc3n2C1 (configuration not stated) ?
-- reply satisfied

-- ask What do you have for C#CC1(O)CCCCCCCCC2(CCCCCCCC1)OCCO2 ?
-- reply satisfied

-- ask What do you have for O=C(Nc1ccc(Oc2cccc(F)c2)c(Cl)c1)c1cnccn1 ?
-- reply not satisfied

-- ask What do you have for O=C(c1cc2c(c3ccccc13)NC1(CCCCC1)N=C2C(F)(F)F)C(F)(F)F ?
-- reply satisfied

-- ask What do you have for CCOC(=O)c1c(NC(=S)Nc2ccccc2)sc2c1CCOC2 ?
-- reply satisfied

-- ask What do you have for O1[As]2O[As]3O[As]1O[As](O2)O3 ?
-- reply not satisfied

-- ask What do you have for COc1ccc(/C=C(\C(=O)NCc2cccnc2)S(=O)(=O)c2ccccc2)cc1OC ?
-- reply satisfied

-- ask What do you have for Cc1nn(-c2ccc(Cl)cc2)c2nc3c(nc12)C(=O)C(=O)c1ccccc1-3 ?
-- reply satisfied
